Data provenance is the NIST ThermoML archive (doi:10.1021/acs.jced.6b00149).

# PROTOCOL NOTES: refractive index (Na D-line) (dimensionless)
# EXPERIMENTAL PARAMETERS: 298.15 K; 101.33 kPa; Liquid; Standard Abbe refractometry
Entries and their measured refractive index follow.
Respond numerically, and do not add a unit to the figure.

Example entries and their recorded answers appear below.
[[record]]
compound = "COC(C)(C)C [2-methoxy-2-methylpropane]"
property_measured = "refractive index"
quantitative_readout = 1.36594

[[record]]
compound = "CC(C)=O [acetone]"
property_measured = "refractive index"
quantitative_readout = 1.35553

[[record]]
compound = "O [water]"
property_measured = "refractive index"
quantitative_readout = 1.33249


We next turn to a different compound, shown below.
Query string: What refractive index value was documented for this compound, O=Cc1ccco1 [2-furaldehyde] ?
Result string: 1.52263
